test system: dopamine-β-hydroxylase; experiment: Determination of noradrenaline and dopamine levels of brain (dopamine-β-hydroxylase inhibiting effect); type: in vivo, male Wistar rats; conditions: i.p., 200 mg/kg, 4 hours; ± standard error
Below: a set of entries, each annotated with reported Brain NA (noradrenaline) level, percentages in relation to the controls.
Expressed in %, but write only the number.

Reference set, count: 3
>>> print(df.to_string())
                                   compound             assaysystem  measuredvalue
0  S=C(Nc1ccccc1)Nc1nccs1 [Compound U-14624, N-phenyl-N'-(2-thiazolyl)-thiourea, reference compound]  dopamine-β-hydroxylase           31.6
1  C=CCNC1=C(C(=S)SSC(=S)C2=C(NCC=C)CCC2)CCC1 [Compound M-7]  dopamine-β-hydroxylase           50.5
2  CCN(CC)C(=S)SSC(=S)N(CC)CC [DS, bis(diethylthiocarbamoyl)-disulfide, reference compound]  dopamine-β-hydroxylase           22.5

Could you share what Brain NA (noradrenaline) level, percentages in relation to the controls was measured for CCCCNC1=C(C(=S)SSC(=S)C2=C(NCCCC)CCC2)CCC1 [Compound M-2] , tested on dopamine-β-hydroxylase?
70.9

====

tested on: dopamine-β-hydroxylase; test: Determination of noradrenaline and dopamine levels of brain (dopamine-β-hydroxylase inhibiting effect); assay type: in vivo, male Wistar rats; conditions: i.p., 200 mg/kg, 4 hours; ± standard error
outcomeMeasure: Brain NA (noradrenaline) level, percentages in relation to the controls (%)
# number only, unit % dropped from output

Sample records with Brain NA (noradrenaline) level, percentages in relation to the controls:
                                   compound  unitlabel  measuredvalue
0  CCNC1=C(C(=S)SSC(=S)C2=C(NCC)CCC2)CCC1 [Compound M-6]          %           34.4
1  S=C(SSC(=S)C1=C(NC2CCCCC2)CCC1)C1=C(NC2CCCCC2)CCC1 [Compound M-5]          %           64.6

Attention now shifts to the item below.
Record lookup: for dopamine-β-hydroxylase, what Brain NA (noradrenaline) level, percentages in relation to the controls belongs to COCCNC1=C(C(=S)SSC(=S)C2=C(NCCOC)CCC2)CCC1 [Compound M-4] ?
39.6
